# Measurement target: CETP (Homo sapiens)
# Construct: The CETP activity in this plasma was measured with Cholesteryl Ester Transfer Protein Activity kit
# Sequence (P11597 18-493): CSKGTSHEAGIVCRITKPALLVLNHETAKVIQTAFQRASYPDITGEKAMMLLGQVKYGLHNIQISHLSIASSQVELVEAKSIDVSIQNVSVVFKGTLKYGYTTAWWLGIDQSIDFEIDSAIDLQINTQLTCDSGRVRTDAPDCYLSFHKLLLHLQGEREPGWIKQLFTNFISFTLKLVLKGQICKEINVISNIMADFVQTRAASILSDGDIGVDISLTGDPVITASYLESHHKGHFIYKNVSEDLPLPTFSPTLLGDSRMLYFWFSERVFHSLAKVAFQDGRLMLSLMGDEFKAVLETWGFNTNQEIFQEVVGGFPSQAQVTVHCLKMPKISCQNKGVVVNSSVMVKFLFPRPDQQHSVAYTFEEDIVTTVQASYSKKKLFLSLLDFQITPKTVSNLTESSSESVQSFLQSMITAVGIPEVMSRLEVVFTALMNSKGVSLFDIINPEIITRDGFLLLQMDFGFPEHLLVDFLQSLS
# Assay protocol: Measurement of CETP inhibitory action in human plasma
# Settings: incubated with compound 37° C. 4 hours, Roar Biomedical CETP Activity kit, read-out: IC50 (concentration inhibiting the CETP activity by 50%)
I'd appreciate it if you could supply pIC50 values for the items below.
Units for pIC50: none; it is -log10 of a concentration expressed in mol/L.

// fetch pIC50 given entry CCN(CC1CCCC1)c1ccc(F)cc1CN(c1ncc(OCCS(C)(=O)=O)cn1)C(C)c1cc(C(F)(F)F)cc(C(F)(F)F)c1 (stereo not shown) [Example 26]
6.60

// fetch pIC50 given entry CC(c1cc(C(F)(F)F)cc(C(F)(F)F)c1)N(Cc1cc(F)cc(F)c1N(CC1CC1)CC1CC1)c1ncc(OCCS(C)(=O)=O)cn1 (stereo not shown) [Example 47]
6.40

// fetch pIC50 given entry CCN(CC1CCCC1)c1ccc(C)cc1CN(c1ncc(OCCS(C)(=O)=O)cn1)C(C)c1cc(C(F)(F)F)cc(C(F)(F)F)c1 (stereo not shown) [Example 9]
7.15

// fetch pIC50 given entry CCN(CC1CCCC1)c1ccc(C(F)(F)F)cc1CN(c1ncc(OCC[S+](C)[O-])cn1)C(C)c1cc(C(F)(F)F)cc(C(F)(F)F)c1 (stereo not shown) [Example 2]
7.40

// fetch pIC50 given entry CCN(CC1CCCC1)c1cc(F)ccc1CN(c1ncc(OCCS(C)(=O)=O)cn1)C(C)c1cc(C(F)(F)F)cc(C(F)(F)F)c1 (stereo not shown) [Example 11]
6.60

// fetch pIC50 given entry CCN(CC1CCCC1)c1ccc(C(F)(F)F)cc1CN(c1ncc(OCCS(C)(=O)=O)cn1)C(C)c1cc(C(F)(F)F)cc(C(F)(F)F)c1 (stereo not shown) [Example 3]
7.52

// fetch pIC50 given entry CCN(CC1CCCC1)c1ccc(C(F)(F)F)cc1CN(c1ncc(OCCS(C)(=O)=O)cn1)C(C)c1cc(C#N)cc(C(F)(F)F)c1 (stereo not shown) [Example 32]
7.52

// fetch pIC50 given entry CCN(CC1CCCC1)c1cc(OC)ccc1CN(c1ncc(OCCS(C)(=O)=O)cn1)C(C)c1cc(C(F)(F)F)cc(C(F)(F)F)c1 (stereo not shown) [Example 13]
7.00

// fetch pIC50 given entry CCN(CC1CCCC1)c1ccc(OC)cc1CN(c1ncc(OCCS(C)(=O)=O)cn1)C(C)c1cc(C(F)(F)F)cc(C(F)(F)F)c1 (stereo not shown) [Example 5]
7.30

// fetch pIC50 given entry CCN(CC1CCCC1)c1c(F)cc(F)cc1CN(c1ncc(OCCS(C)(=O)=O)cn1)C(C)c1cc(C(F)(F)F)cc(C(F)(F)F)c1 (stereo not shown) [Example 7]
6.52

// fetch pIC50 given entry CCN(CC1CCCC1)c1ccc(Br)cc1CN(c1ncc(OCCS(C)(=O)=O)cn1)C(C)c1cc(C(F)(F)F)cc(C(F)(F)F)c1 (stereo not shown) [Example 30]
7.35

// fetch pIC50 given entry CCN(CC1CCCC1)c1ccccc1CN(c1ncc(OCCS(C)(=O)=O)cn1)C(C)c1cc(C(F)(F)F)cc(C(F)(F)F)c1 (stereo not shown) [Example 20]
6.10

// fetch pIC50 given entry CCN(CC1CCCC1)c1cc(C(F)(F)F)ccc1CN(c1ncc(OCCS(C)(=O)=O)cn1)C(C)c1cc(C(F)(F)F)cc(C(F)(F)F)c1 (stereo not shown) [Example 16]
6.82

Provenance of the data: patent US7659271B2
